Kindly state IC50 for each of the entries shown.
- Test system: MEL-28 (ATCC HTB-38, monolayer culture of a human melanoma)
- PROCEDURE SUMMARY: Cytotoxicity against MEL-28 cells, crystal violet staining, approximate IC50
- Format: cell-based
- EXPERIMENTAL CONTEXT: SK-MEL-28, 72 h, three days of incubation, value in brackets
Give bare numbers, in nM.

[
  {
    "COMPOUND": "Cc1cc(=O)[nH]c2c1-c1nc3ccccc3c3ccnc(c13)C2=O [IB-96213]",
    "TARGET DESC": "MEL-28 (ATCC HTB-38, monolayer culture of a human melanoma)",
    "IC50 / nM": 3
  }
]

Kindly review the next compound as well.
For the compound O=C1c2c(O)ccnc2-c2nc3ccccc3c3ccnc1c23 [IB-98205] , what IC50 is on record?
170
